Source of measurements: paper PMC12820563

# binding signal values compiled below
Tested system: MBP-FoxP1dN (Mus musculus, UniProt P58462 326-579)
Sequence: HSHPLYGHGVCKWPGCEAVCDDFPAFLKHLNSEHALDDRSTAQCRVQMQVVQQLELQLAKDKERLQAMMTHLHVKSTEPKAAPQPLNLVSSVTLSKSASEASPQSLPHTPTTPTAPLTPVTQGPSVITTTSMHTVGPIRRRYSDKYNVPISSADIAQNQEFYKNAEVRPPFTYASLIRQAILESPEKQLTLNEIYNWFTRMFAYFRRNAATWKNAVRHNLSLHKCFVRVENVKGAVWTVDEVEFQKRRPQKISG
Test details: PD-seq (MBP pull-down with sequencing); 20 mM Tris-HCl pH 7.5, 100 mM NaCl, 1.5 mM MgCl2, 0.4 uM protein, 0.1 uM dsDNA library, 30 min, room temperature, amylose pull-down; high values mean tight binding
Measurement parameters: protein: recombinant; tags: His6-MBP; chain copies: 2; dsDNA, one strand shown
Whole data set: some 16,000 sequences, median “rpm ratio (pull-down/input)” near 0.94, cut for the highest 2% near 1.7. What follows is part of a selection rich in the highest values, with near analogues and random picks from the rest.

Examples with their reported binding signal follow.
Data request: Name the recorded binding signal of the sequence listed here: "GATGATTGTTCTCCCAGCTGATGAATTTATAATATCGAGTAAACAAATTTTCCTAATCTTTCTGTTCAAGCGCCATCTAC"
Data returned: 1.31 RPM ratio (pull-down/input)

Data request: Name the recorded binding signal of the sequence listed here: "GATGATTGTTCTCCCAGCTGATGAATTCAAGCCCTCGAGTAAACAAATTTTCCTAATCTTTCTGTTCAAGCGCCATCTAC"
Data returned: 0.749 RPM ratio (pull-down/input)

Data request: Name the recorded binding signal of the sequence listed here: "GATGATTGTTCTCCCAGCTGATGAATTCTCGCGCTCGAGTAAACAAATTTTCCTAATCTTTCTGTTCAAGCGCCATCTAC"
Data returned: 0.835 RPM ratio (pull-down/input)

Data request: Name the recorded binding signal of the sequence listed here: "GATGATTGTTCTCCCAGCTGATGAATTCTGACTTTCGAGTAAACAAATTTTCCTAATCTTTCTGTTCAAGCGCCATCTAC"
Data returned: 0.897 RPM ratio (pull-down/input)

Data request: Name the recorded binding signal of the sequence listed here: "GATGATTGTTCTCCCAGCTGATGAATTAAGCGCATCGAGTAAACAAATTTTCCTAATCTTTCTGTTCAAGCGCCATCTAC"
Data returned: 1.27 RPM ratio (pull-down/input)

Lab note: next sequence to report on.
Data request: Name the recorded binding signal of the sequence listed here: "GATGATTGTTCTCCCAGCTGATGAATTAAAAAGTTCGAGTAAACAAATTTTCCTAATCTTTCTGTTCAAGCGCCATCTAC"
Data returned: 0.935 RPM ratio (pull-down/input)

###

Tested system: MBP-FoxP1dN (Mus musculus, UniProt P58462 326-579)
Sequence: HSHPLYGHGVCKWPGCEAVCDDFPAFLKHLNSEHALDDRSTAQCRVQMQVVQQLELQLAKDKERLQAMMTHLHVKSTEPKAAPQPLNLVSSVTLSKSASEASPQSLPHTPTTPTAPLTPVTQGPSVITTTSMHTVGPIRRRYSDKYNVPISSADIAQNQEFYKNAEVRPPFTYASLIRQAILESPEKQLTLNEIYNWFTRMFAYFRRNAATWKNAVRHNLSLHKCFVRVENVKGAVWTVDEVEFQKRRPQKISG
Test details: PD-seq (MBP pull-down with sequencing); 20 mM Tris-HCl pH 7.5, 100 mM NaCl, 1.5 mM MgCl2, 0.4 uM protein, 0.1 uM dsDNA library, 30 min, room temperature, amylose pull-down; high values mean tight binding
Measurement parameters: protein: recombinant; tags: His6-MBP; chain copies: 2; dsDNA, one strand shown
Whole data set: some 16,000 sequences, median “rpm ratio (pull-down/input)” near 0.94, cut for the highest 2% near 1.7. The sample holds the highest values, similar sequences and a random draw of the others, so the mix is not that of the screen.
# binding signal values compiled below

Data request: Identify measured binding signal obtained with MBP-FoxP1dN (Mus musculus, UniProt P58462 326-579) for "GATGATTGTTCTCCCAGCTGATGAATTTCACCCATCGAGTAAACAAATTTTCCTAATCTTTCTGTTCAAGCGCCATCTAC" .
Data returned: 0.921 RPM ratio (pull-down/input)

Lab note: next sequence to report on.
Data request: Identify measured binding signal obtained with MBP-FoxP1dN (Mus musculus, UniProt P58462 326-579) for "GATGATTGTTCTCCCAGCTGATGAATTGGGTCCTTCGAGTAAACAAATTTTCCTAATCTTTCTGTTCAAGCGCCATCTAC" .
Data returned: 0.85 RPM ratio (pull-down/input)
